In this section we review reported Population Mitotic Cells (%) values for a set of molecules.
tested on: HEK-293T; test: Multiplex assay against HEK293T; assay type: toxicity, cell-based; details: human, 24 h, 1 µM, compound concentration 1 uM, replicate 2
A number alone suffices; assume %.

CC(C)NCC(O)COc1ccc(CCOCC2CC2)cc1.Cl (configuration not stated) [BETAXOLOL HYDROCHLORIDE]    89
Cc1cc(C)cc(-c2cnc3cc(Cl)c(-c4cccc(O)c4)cc3c2OCCCN)c1    60
O=C1NCN(c2ccccc2)C12CCN(CCCOc1ccc(F)cc1)CC2 [SPIRAMIDE]    93

So what does the record say about Population Mitotic Cells (%) for Cn1cc(-c2[nH]c3cc(NC(=O)[C@H](N)C4CCCCC4)cc4c3c2C=NNC4=O)cn1 ?
59

So what does the record say about Population Mitotic Cells (%) for CC[C@H](C)C(=O)O[C@H]1C[C@@H](C)C=C2C=C[C@H](C)[C@H](CC[C@@H]3C[C@@H](O)CC(=O)O3)[C@H]21 ?
91

So what does the record say about Population Mitotic Cells (%) for CN1CCC[C@@H]1CCO[C@](C)(c1ccccc1)c1ccc(Cl)cc1.O=C(O)/C=C/C(=O)O [CLEMASTINE FUMARATE] ?
57

So what does the record say about Population Mitotic Cells (%) for COc1cc(-n2cnc3cc(-c4ccc(Cl)cc4)sc3c2=O)ccc1OCCN1CCCC1 ?
72

###

system: U2OS; assay: Multiplex assay against U2OS; assay type: toxicity, cell-based; details: human, 12 h, 10 µM, compound concentration 10 uM, replicate 1
In this section we review reported Population Normal (%) values for a set of molecules.
A number alone suffices; assume %.

COc1cc2nccc(Oc3ccc(NC(=O)Nc4cc(C)on4)c(Cl)c3)c2cc1OC.O    88
Cc1nc(-c2cn3c(n2)-c2ccc(-c4cnn(C(C)(C)C(N)=O)c4)cc2OCC3)n(C(C)C)n1 [TASELISIB]    97

So what does the record say about Population Normal (%) for CN(C)C(=O)N[C@H]1CC[C@H](CCN2CCN(c3cccc(Cl)c3Cl)CC2)CC1.Cl [CARIPRAZINE HYDROCHLORIDE] ?
91

So what does the record say about Population Normal (%) for CC(C)(O)CNc1ncc(-c2ccnc(Nc3ccnc(Cl)c3)n2)c(CC2CC2)n1 ?
85

So what does the record say about Population Normal (%) for CN1CCN(c2ccc(OC(F)(F)F)c(Nc3ncc4c(n3)-c3c(c(C(N)=O)nn3CCO)CC4)c2)CC1 [ONVANSERTIB] ?
93

###

tested on: Fibroblast; assay: Multiplex assay against human fibroblast; format: toxicity, cell-based; conditions: 48 h, 1 µM, compound concentration 1 uM, replicate 1
propertyMeasured: Population Normal (%)
A number alone suffices; assume %.

Below, 5 compounds whose answers are already recorded.
Cc1c(-c2ccc(O)cc2)n(Cc2ccc(OCCN3CCCCCC3)cc2)c2ccc(O)cc12    85
CN1CCN(CCOc2cc(OC3CCOCC3)c3c(Nc4c(Cl)ccc5c4OCO5)ncnc3c2)CC1    89
COc1cc(-n2cnc3cc(-c4ccc(Cl)cc4)sc3c2=O)ccc1OCCN1CCCC1    81
O=C1NCN(c2ccccc2)C12CCN(CCCOc1ccc(F)cc1)CC2 [SPIRAMIDE]    85
CC[C@H](C)C(=O)O[C@H]1C[C@@H](C)C=C2C=C[C@H](C)[C@H](CC[C@@H]3C[C@@H](O)CC(=O)O3)[C@H]21    90

Provide value of Population Normal (%) for this record tested with Fibroblast: C[C@@H](NCCCc1cccc(C(F)(F)F)c1)c1cccc2ccccc12.Cl [CINACALCET HYDROCHLORIDE]
80

Provide value of Population Normal (%) for this record tested with Fibroblast: COc1ncc(-c2ccc3nccc(-c4ccnnc4)c3c2)cc1NS(=O)(=O)c1ccc(F)cc1F
83

Provide value of Population Normal (%) for this record tested with Fibroblast: COc1cccc([C@@H](C)NCCCc2ccccc2Cl)c1.Cl [TECALCET HYDROCHLORIDE]
89

Data provenance is ChEMBL document CHEMBL4689842.
